Target: GST-TIE2 (intracellular domains of human TIE2) (Homo sapiens, UniProt Q02763)
Assay: TIE-2 Enzyme Assay (TIE2-E2), LANCE method
Details: read-out: TIE2 PIC50 TIE2-E2 assay
parameter: IC50

Measured IC50 (GST-TIE2 (intracellular domains of human TIE2) (Homo sapiens, UniProt Q02763)), entry Cn1nc(-c2ccc(NC(=O)Nc3cc(C(F)(F)F)ccc3F)cc2)c2cnc(NCCCN)nc21 [Example 94] : 39.8 to 100 nM

Measured IC50 (GST-TIE2 (intracellular domains of human TIE2) (Homo sapiens, UniProt Q02763)), entry CCc1cccc(NC(=O)Nc2ccc(-c3nn(C)c4nc(NCCN5CCOCC5)ncc34)cc2C)c1 [Example 45] : 100 to 1000 nM

Measured IC50 (GST-TIE2 (intracellular domains of human TIE2) (Homo sapiens, UniProt Q02763)), entry Cn1nc(-c2ccc(NC(=O)Nc3cc(C(F)(F)F)ccc3F)cc2)c2cnc(NCCCN3CCCC3)nc21 [Example 86] : ≤ 39.8 nM

Measured IC50 (GST-TIE2 (intracellular domains of human TIE2) (Homo sapiens, UniProt Q02763)), entry CC(=O)c1cccc(NC(=O)Nc2ccc(-c3nn(C)c4nc(NCCN5CCOCC5)ncc34)cc2F)c1 [Example 54] : 100 to 1000 nM

Measured IC50 (GST-TIE2 (intracellular domains of human TIE2) (Homo sapiens, UniProt Q02763)), entry Cn1nc(-c2ccc(NC(=O)Nc3cc(C(F)(F)F)ccc3F)cc2)c2cnc(NCCCn3ccnc3)nc21 [Example 100] : ≤ 39.8 nM

Measured IC50 (GST-TIE2 (intracellular domains of human TIE2) (Homo sapiens, UniProt Q02763)), entry Cn1nc(-c2ccc(NS(=O)(=O)c3cccc(Cl)c3Cl)cc2)c2cnc(NCCCCN)nc21 [Example 120] : 1000 to 10000 nM

Measured IC50 (GST-TIE2 (intracellular domains of human TIE2) (Homo sapiens, UniProt Q02763)), entry CCN(CC)CCCNc1ncc2c(-c3ccc(NC(=O)Nc4cc(C(F)(F)F)ccc4F)cc3)nn(C)c2n1 [Example 88] : ≤ 39.8 nM

---

Kindly state pIC50 for each of the entries shown.
Biological target: Recombinant GST-Tie2 (Homo sapiens, UniProt Q02763)
Sequence (Q02763 23-1124): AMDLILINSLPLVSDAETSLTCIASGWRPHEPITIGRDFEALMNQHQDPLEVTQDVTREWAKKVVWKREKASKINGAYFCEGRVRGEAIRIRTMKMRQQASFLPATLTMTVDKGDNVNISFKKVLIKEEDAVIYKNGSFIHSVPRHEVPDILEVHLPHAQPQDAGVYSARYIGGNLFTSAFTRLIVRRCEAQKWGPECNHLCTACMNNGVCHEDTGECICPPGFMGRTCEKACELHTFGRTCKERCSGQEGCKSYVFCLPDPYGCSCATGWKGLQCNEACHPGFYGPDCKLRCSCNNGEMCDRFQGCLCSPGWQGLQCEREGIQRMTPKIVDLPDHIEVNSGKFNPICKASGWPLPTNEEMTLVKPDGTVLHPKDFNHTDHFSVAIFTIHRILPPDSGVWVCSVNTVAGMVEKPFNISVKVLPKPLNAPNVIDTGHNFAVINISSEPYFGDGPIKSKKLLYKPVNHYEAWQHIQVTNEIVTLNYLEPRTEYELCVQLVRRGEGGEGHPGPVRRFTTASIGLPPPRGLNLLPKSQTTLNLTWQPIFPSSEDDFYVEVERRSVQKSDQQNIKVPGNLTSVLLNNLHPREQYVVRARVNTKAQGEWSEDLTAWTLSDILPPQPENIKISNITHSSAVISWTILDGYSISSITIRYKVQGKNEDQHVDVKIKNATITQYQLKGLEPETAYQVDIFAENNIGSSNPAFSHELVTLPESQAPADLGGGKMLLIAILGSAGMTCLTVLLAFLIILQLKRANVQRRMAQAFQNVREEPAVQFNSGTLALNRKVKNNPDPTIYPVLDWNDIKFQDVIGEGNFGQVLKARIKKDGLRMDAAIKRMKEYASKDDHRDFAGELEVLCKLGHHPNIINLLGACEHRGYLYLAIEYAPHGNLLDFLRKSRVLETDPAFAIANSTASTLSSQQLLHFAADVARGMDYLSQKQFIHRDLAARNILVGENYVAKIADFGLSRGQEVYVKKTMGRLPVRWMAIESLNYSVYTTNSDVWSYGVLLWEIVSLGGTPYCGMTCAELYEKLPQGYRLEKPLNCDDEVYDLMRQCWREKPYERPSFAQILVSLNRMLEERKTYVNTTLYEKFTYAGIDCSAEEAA
Experiment: Tie2 Fluorescence Polarization Kinase Activity Assay (TIE2-FP)
Assay type: biochemical
pIC50: −log10 of the molar value.

pIC50 reading for `CCN(CC)CCCCNc1ncnc2c1c(-c1ccc(NC(=O)Nc3cc(C(F)(F)F)ccc3F)cc1)nn2C` : > 7.00

pIC50 reading for `Cn1nc(-c2ccc(NC(=O)Nc3cc(C(F)(F)F)ccc3F)cc2)c2cnc(NCCO)nc21` : 6.52 to 7.00

pIC50 reading for `CCc1cccc(NC(=O)Nc2ccc(-c3nn(Cc4ccccc4)c4nc(NCCN5CCOCC5)ncc34)cc2)c1` : 6.52 to 7.00

pIC50 reading for `O=C(Nc1ccc(-c2n[nH]c3ncnc(N(CCN4CCOCC4)Cc4ccccc4)c23)cc1)Nc1cc(C(F)(F)F)ccc1F` : > 7.00

pIC50 reading for `CCN(CC)CCNc1ncnc2c1c(-c1ccc(NC(=O)Nc3cc(C(F)(F)F)ccc3F)cc1)nn2C` : ≤ 6.52

---

Biological target: catalytic domain of human VEGFR3 (Homo sapiens, UniProt P35916, H890Q)
Sequence (P35916 with tags, fused parts or gaps isoform P35916-1 H890Q): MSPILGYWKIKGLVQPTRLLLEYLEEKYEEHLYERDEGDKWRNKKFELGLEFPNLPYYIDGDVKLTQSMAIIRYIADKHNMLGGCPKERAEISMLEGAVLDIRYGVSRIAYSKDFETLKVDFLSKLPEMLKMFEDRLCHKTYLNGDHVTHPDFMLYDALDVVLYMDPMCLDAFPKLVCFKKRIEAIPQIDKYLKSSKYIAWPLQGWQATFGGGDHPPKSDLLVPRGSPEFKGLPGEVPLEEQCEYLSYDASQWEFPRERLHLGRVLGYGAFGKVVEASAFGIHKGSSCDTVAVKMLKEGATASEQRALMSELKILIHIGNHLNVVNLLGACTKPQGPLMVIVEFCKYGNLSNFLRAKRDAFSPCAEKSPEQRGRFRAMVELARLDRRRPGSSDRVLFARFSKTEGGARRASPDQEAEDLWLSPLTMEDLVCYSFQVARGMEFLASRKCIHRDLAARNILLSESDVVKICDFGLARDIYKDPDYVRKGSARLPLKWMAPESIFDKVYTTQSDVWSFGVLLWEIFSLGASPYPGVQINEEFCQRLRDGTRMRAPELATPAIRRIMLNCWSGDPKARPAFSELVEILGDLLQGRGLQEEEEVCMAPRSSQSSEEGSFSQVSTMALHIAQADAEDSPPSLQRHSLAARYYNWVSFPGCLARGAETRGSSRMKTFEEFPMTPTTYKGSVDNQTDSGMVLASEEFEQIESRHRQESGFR
Assay: VEGFR-3 Homogenous Time-Resolved Fluorescence Assay (VEGFR-3-HTRF)
Settings: read-out: VEGFR3 PIC50 VEGFR-3-HTRF assay
Kindly state IC50 for each of the entries shown.

IC50 reading for `CN1CCN(CCCNc2ncc3c(-c4ccc(NC(=O)Nc5cc(C(F)(F)F)ccc5F)cc4)nn(C)c3n2)CC1` : > 10000 nM

IC50 reading for `CC(=O)Nc1ncc2c(-c3ccc(NS(=O)(=O)c4cccc(Cl)c4Cl)cc3)nn(C)c2n1` : 100 to 1000 nM

IC50 reading for `Cn1nc(-c2ccc(NS(=O)(=O)c3cccc(Cl)c3Cl)cc2)c2cnc(NCCCCO)nc21` : 1000 to 10000 nM

IC50 reading for `CC(C)n1nc(-c2ccc(NS(=O)(=O)c3cccc(Cl)c3Cl)cc2)c2cnc(NCCN3CCOCC3)nc21` : 1000 to 10000 nM

IC50 reading for `Cn1nc(-c2ccc(NC(=O)Nc3cc(C(F)(F)F)ccc3F)c(F)c2)c2cnc(NCCCn3ccnc3)nc21` : 1000 to 10000 nM

IC50 reading for `Cn1nc(-c2ccc(NC(=O)Nc3cc(C(F)(F)F)ccc3F)cc2)c2cnc(NCCN3CCNC3=O)nc21` : 1000 to 10000 nM

IC50 reading for `Cn1nc(-c2ccc(NS(=O)(=O)c3cccc(Cl)c3Cl)cc2)c2cnc(NCCN3CCNC3=O)nc21` : 100 to 1000 nM

IC50 reading for `Cn1nc(-c2ccc(NC(=O)Nc3cc(C(F)(F)F)ccc3F)cc2)c2cnc(NCCCO)nc21` : 1000 to 10000 nM

IC50 reading for `Cn1nc(-c2ccc(NC(=O)Nc3cc(C(F)(F)F)ccc3F)cc2)c2cnc(NCCc3ccncc3)nc21` : 100 to 1000 nM

IC50 reading for `Cn1nc(-c2ccc(NC(=O)Nc3cc(C(F)(F)F)ccc3F)cc2)c2cnc(NCCN3CCOCC3)nc21` : 1000 to 10000 nM

IC50 reading for `Cn1cncc1CCNc1ncc2c(-c3ccc(NC(=O)Nc4cc(C(F)(F)F)ccc4F)cc3)nn(C)c2n1` : 100 to 1000 nM

IC50 reading for CC1CCCCN1CCCNc1ncc2c(-c3ccc(NC(=O)Nc4cc(C(F)(F)F)ccc4F)cc3)nn(C)c2n1 (stereo not shown) : > 10000 nM

IC50 reading for `CC(=O)NCCNc1ncc2c(-c3ccc(NS(=O)(=O)c4cccc(Cl)c4Cl)cc3)nn(C)c2n1` : 1000 to 10000 nM

IC50 reading for `Cn1nc(-c2ccc(NS(=O)(=O)c3cccc(Cl)c3Cl)cc2)c2cnc(NCCCO)nc21` : 1000 to 10000 nM

IC50 reading for `Cn1cccc1CCNc1ncc2c(-c3ccc(NC(=O)Nc4cc(C(F)(F)F)ccc4F)cc3)nn(C)c2n1` : 1000 to 10000 nM

IC50 reading for `Cn1cccc1CCNc1ncc2c(-c3ccc(NS(=O)(=O)c4cccc(Cl)c4Cl)cc3)nn(C)c2n1` : 1000 to 10000 nM

IC50 reading for `Cn1nc(-c2ccc(NC(=O)Nc3cc(C(F)(F)F)ccc3F)c(F)c2)c2cnc(NCCN3CCOCC3)nc21` : 1000 to 10000 nM

IC50 reading for `CN1CCN(CCCNc2ncc3c(-c4ccc(NS(=O)(=O)c5cccc(Cl)c5Cl)cc4)nn(C)c3n2)CC1` : > 10000 nM

IC50 reading for `Cn1nc(-c2ccc(NC(=O)Nc3cc(C(F)(F)F)ccc3F)cc2)c2cnc(NCCCCCO)nc21` : > 10000 nM

IC50 reading for `Cn1nc(-c2ccc(NC(=O)Nc3cc(C(C)(C)C)on3)c(F)c2)c2cnc(NCCN3CCOCC3)nc21` : 1000 to 10000 nM

IC50 reading for `Cn1nc(-c2ccc(NS(=O)(=O)c3cccc(Cl)c3Cl)cc2)c2cnc(NCCCN3CCCC3=O)nc21` : 1000 to 10000 nM

IC50 reading for `Cn1nc(-c2ccc(NC(=O)Nc3cc(C(F)(F)F)ccc3F)cc2)c2cnc(NCCCCO)nc21` : 1000 to 10000 nM

IC50 reading for `Cn1nc(-c2ccc(NC(=O)Nc3cc(C(F)(F)F)ccc3F)cc2)c2cnc(NCCCN3CCOCC3)nc21` : > 10000 nM

IC50 reading for `Cn1nc(-c2ccc(NS(=O)(=O)c3cccc(Cl)c3Cl)cc2)c2cnc(NCCCn3ccnc3)nc21` : > 10000 nM

IC50 reading for `Cn1nc(-c2ccc(NC(=O)Nc3cc(C(C)(C)C)on3)cc2)c2cnc(NCCN3CCOCC3)nc21` : 100 to 1000 nM

---

Target: GST-VEGFR2 (Homo sapiens)
Construct: GST-VEGFR2, baculovirus expressed recombinant constructs of the intracellular domains
Sequence (P35968 786-1356 limits assumed): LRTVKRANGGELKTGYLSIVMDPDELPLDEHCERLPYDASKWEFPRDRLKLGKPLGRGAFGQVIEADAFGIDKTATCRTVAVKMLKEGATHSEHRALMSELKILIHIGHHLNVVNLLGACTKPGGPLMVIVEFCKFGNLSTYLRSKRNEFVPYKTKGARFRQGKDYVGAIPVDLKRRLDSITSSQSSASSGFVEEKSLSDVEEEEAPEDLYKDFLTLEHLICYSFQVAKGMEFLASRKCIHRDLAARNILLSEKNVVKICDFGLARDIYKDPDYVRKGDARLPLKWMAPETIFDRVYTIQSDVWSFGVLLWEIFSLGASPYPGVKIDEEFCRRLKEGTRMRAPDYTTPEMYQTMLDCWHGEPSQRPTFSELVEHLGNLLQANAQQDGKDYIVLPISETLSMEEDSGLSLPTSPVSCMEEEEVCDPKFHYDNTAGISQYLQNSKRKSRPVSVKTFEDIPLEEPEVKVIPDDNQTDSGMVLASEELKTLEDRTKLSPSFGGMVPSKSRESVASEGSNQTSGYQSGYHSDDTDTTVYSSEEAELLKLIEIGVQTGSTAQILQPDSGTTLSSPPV
Test: VEGF-R2 Enzyme Assay (VEGF-E2), LANCE method
Details: read-out: VEGFR2 PIC50 VEGFR-E2 assay
Kindly state IC50 for each of the entries shown.

IC50 reading for `Cn1nc(-c2ccc(NC(=O)Nc3ccc4ccccc4c3)cc2)c2cnc(NCCN3CCOCC3)nc21` : 1 to 10 µM

IC50 reading for `Cn1nc(-c2ccc(NC(=O)Nc3cc(C(F)(F)F)ccc3F)c(F)c2)c2cnc(NCCN3CCOCC3)nc21` : 1 to 10 µM

IC50 reading for `CC(=O)Nc1ncc2c(-c3ccc(NC(=O)Nc4cc(C(F)(F)F)ccc4F)cc3)nn(C)c2n1` : 1 to 10 µM

IC50 reading for `CN1CCN(CCCNc2ncc3c(-c4ccc(NC(=O)Nc5cc(C(F)(F)F)ccc5F)cc4)nn(C)c3n2)CC1` : > 10 µM
